Ref: patent US20070249670A1

- target: human liver glycogen phosphorylase a (HLGPa) (Homo sapiens, UniProt P06737)
- Construct: creating a full-length cDNA fused at the 5′ end to codons for methionine-glycine-alanine-histidine; 6xHis tag (leader Met-Gly-Ala-His6-Gly-Gly) (N); made in house; host or cells: E. coli (bacterial expression plasmid pTXK1007LTev)
- assay-protocol: Human liver glycogen phosphorylase a enzymatic activity assay (coupled, fluorescent resorufin readout, with and without 10 mM glucose)
- Type: biochemical
- condition-set: human liver glycogen phosphorylase a; table does not say whether with or without 10 mM glucose
recorded-endpoint: IC50 (nM)

Here is how some compounds turned out for IC50.
{"compound-structure-string": "COc1ccc(-c2ccc(C(=O)O)c(NC(=O)Nc3c(C)cc(C)cc3C)c2)cc1", "IC50, nM": 1990}
{"compound-structure-string": "COc1ccc(-c2ccc(C(=O)N[C@H](C(=O)O)C3CCCCC3)c(NC(=O)Nc3c(C)cc(C)cc3C)c2)cc1OC", "IC50, nM": 3}
{"compound-structure-string": "CCCC[C@H](NC(=O)c1nc2ccccc2cc1NC(=O)Nc1c(Cl)cccc1Cl)C(=O)O", "IC50, nM": 1800}

P: COc1ccc(-c2ccc(C(=O)NC3(C(=O)O)CCCCCCC3)c(NC(=O)Nc3c(C)cc(C)cc3C)c2)cc1F
Q: COc1ccc(-c2ccc(C(=O)N[C@H](C(=O)O)C3CCCCC3)c(NC(=O)Nc3c(C)cc(C)cc3C)c2)cc1F
R: CCCCN(CCCC)c1ccc(C(=O)N[C@H](C(=O)O)C2CCCCC2)c(NC(=O)Nc2c(C)cc(C)cc2C)c1
S: Cc1cc(C)c(NC(=O)Nc2cc(-c3ccc(CN4CCCC4)cc3)ccc2C(=O)N[C@H](C(=O)O)C2CCCCC2)c(C)c1
T: Cc1cccc(C)c1NC(=O)Nc1cc2ccccc2cc1C(=O)N(CC(=O)O)C1CCCC1
Task: Sort by IC50, descending. # answer = labels listed in requested order
Result: R, T, Q, P, S

---

- target: human liver glycogen phosphorylase a (HLGPa) (Homo sapiens)
- Construct: creating a full-length cDNA fused at the 5′ end to codons for methionine-glycine-alanine-histidine; 6xHis tag (leader Met-Gly-Ala-His6-Gly-Gly) (N); made in house; host or cells: E. coli (bacterial expression plasmid pTXK1007LTev)
- Sequence (P06737 2-847 limits assumed): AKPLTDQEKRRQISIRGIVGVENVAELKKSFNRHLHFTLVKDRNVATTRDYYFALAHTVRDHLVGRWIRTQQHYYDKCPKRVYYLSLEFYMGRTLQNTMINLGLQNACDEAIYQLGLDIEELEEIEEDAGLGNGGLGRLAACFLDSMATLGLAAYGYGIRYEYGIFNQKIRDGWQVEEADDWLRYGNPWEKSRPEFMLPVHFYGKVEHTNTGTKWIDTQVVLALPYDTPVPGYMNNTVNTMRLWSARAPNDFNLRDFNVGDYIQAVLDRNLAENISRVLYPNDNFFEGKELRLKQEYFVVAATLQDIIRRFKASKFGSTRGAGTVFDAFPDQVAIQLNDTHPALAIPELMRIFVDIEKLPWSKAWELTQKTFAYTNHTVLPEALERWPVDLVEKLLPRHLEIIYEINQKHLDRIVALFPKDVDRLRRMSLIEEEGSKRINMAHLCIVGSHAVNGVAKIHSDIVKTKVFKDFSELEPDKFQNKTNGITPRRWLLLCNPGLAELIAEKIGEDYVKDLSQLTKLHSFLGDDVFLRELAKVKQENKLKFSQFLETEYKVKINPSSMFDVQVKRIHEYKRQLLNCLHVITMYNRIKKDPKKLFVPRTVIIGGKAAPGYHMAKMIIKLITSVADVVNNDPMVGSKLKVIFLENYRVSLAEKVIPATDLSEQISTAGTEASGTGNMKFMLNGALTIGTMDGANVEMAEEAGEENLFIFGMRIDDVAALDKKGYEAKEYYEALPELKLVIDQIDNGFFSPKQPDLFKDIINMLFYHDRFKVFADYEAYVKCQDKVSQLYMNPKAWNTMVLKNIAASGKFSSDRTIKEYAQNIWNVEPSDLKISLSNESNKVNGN
- assay-protocol: Human liver glycogen phosphorylase a enzymatic activity assay (coupled, fluorescent resorufin readout, with and without 10 mM glucose)
- Assay type: biochemical
- condition-set: human liver glycogen phosphorylase a enzymatic activity assay
recorded-endpoint: IC50 (nM)

Here is how some compounds turned out for IC50.
{"compound-structure-string": "Cc1cc(C)c(NC(=O)Nc2cc(F)ccc2C(=O)N[C@H](C(=O)O)[C@@H](C)OCc2ccccc2)c(C)c1", "IC50 (nM)": 134}
{"compound-structure-string": "COC(=O)[C@@H](NC(=O)c1sc(-c2cccnc2)cc1NC(=O)Nc1c(Cl)cccc1Cl)C1CCCCC1", "IC50 (nM)": 13200}
{"compound-structure-string": "Cc1cc(C)c(NC(=O)Nc2cc3ccccc3cc2C(=O)N[C@@H](COCc2ccccc2)C(=O)O)c(C)c1", "IC50 (nM)": 28}
{"compound-structure-string": "Cc1cccc(C)c1NC(=O)Nc1cc2ccccc2cc1C(=O)N[C@@H](CO)C(=O)O", "IC50 (nM)": 2000}

I: COc1ccc(-c2cc(C(=O)N[C@H](C(=O)O)C3CCCCC3)c(NC(=O)Nc3c(C)cc(C)cc3C)s2)cc1
II: CC[C@H](C)[C@H](NC(=O)c1c(NC(=O)Nc2c(Cl)cccc2Cl)sc2c1CCCC2)C(=O)O
III: Cc1cccc(C)c1NC(=O)Nc1cc2ccccc2cc1C(=O)N[C@H](C(=O)O)C(C)C
Task: Let's sort these by IC50, smallest first. Go ahead? # answer = labels listed in requested order
Result: I, III, II
(I: 16 nM, III: 1960 nM, II: 7970 nM)
